Tested on: EGFR(E746-A750del)
condition summary: Compound Concentration (nM):1000;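 also: KINOMEscan scanMAX binding as percent activity remaining versus control; lower means stronger binding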
Give measured Percent Control for each item. Keep answers brief.
Numbers only, in %.

Provide Percent Control for all items below, preserving their order.
1. COc1cc(C)c(N(C)C(=O)CN(C)C)cc1Nc1nc(Nc2cccc(F)c2C(N)=O)c2cc[nH]c2n1
2. O=C1Nc2ccc(C(=O)c3ccco3)cc2C1=Cc1cc(Cl)c(O)c(Cl)c1 [GW406108X]
3. COc1cc(N2CCN(C(C)C)CC2)ccc1Nc1nc(Nc2ccc(F)cc2C(=O)NC[C@@H](O)CO)c2cc[nH]c2n1 [GSK1392956A]
4. CC1=C(C(=O)Nc2ccc3[nH]ncc3c2)C(c2ccc3ccccc3c2)CC(=O)N1 (stereo not drawn) [GSK270822A]
5. COc1cc(/C=N/Nc2ncnc3[nH]ncc23)ccc1O [GW578748X]
6. NS(=O)(=O)c1ccc(N/N=C2\C(=O)Nc3ccc(C(=O)NCCc4c[nH]cn4)cc32)cc1 [GW300660X]

Result:
1: 100; 2: 86; 3: 74; 4: 100; 5: 90; 6: 100

====

Give measured Percent Control for each item. Keep answers brief.
Test system: EGFR(L747-E749del, A750P)
condition summary: Compound Concentration (nM):1000
Give bare numbers, in %.

Field: example entries. Status: answers known.
COc1cccc(-n2ncc3c(N/N=C/c4ccncc4)ncnc32)c1 [GW784752X]    96
COc1cccc(-c2c[nH]c3c(N/N=C/c4ccncc4)ncnc23)c1 [GW814408X]    18
NS(=O)(=O)c1ccc(N/N=C2\C(=O)Nc3ccc(C(=O)NCc4ccncc4)cc32)cc1 [GW300657X]    100

Provide Percent Control for all items below, preserving their order.
1. NS(=O)(=O)c1ccc(N/N=C2\C(=O)Nc3ccc(-c4cnco4)cc32)cc1
2. COc1cc(N2CCN(C(C)C)CC2)ccc1Nc1nc(Nc2ccc(F)cc2C(=O)NC[C@@H](O)CO)c2cc[nH]c2n1 [GSK1392956A]
3. NS(=O)(=O)c1ccc(N/N=C2\C(=O)Nc3ccc(Cl)cc32)cc1 [GW280670X]
4. Nc1ncnc2occ(-c3ccc(NC(=O)Nc4cc(C(F)(F)F)ccc4F)cc3)c12 [GW770249X]
5. CC(C)COC(=O)c1ccc2c(c1)/C(=C/Nc1ccc(S(N)(=O)=O)cc1)C(=O)N2 [GW416981X]
6. Cl.O=C(O[C@H]1CN[C@H](C#Cc2cc3ncnc(Nc4ccc5c(cnn5Cc5ccccc5)c4)c3s2)C1)N1CCOCC1 [GSK200398A]

Result:
1. 100
2. 83
3. 100
4. 88
5. 62
6. 66

====

System: PRKD2
condition summary: Compound Concentration (nM):1000
Give measured Percent Control for each item. Keep answers brief.
Numbers only, in %.

COc1ccc2[nH]c3c4[nH]c5ccc(OC)cc5c4c4c(c3c2c1)C(=O)NC4=O [GW296115X]    62
Cl.O=C(O[C@H]1CN[C@H](C#Cc2cc3ncnc(Nc4ccc5c(cnn5Cc5ccccc5)c4)c3s2)C1)N1CCOCC1 [GSK200398A]    93
CC1=C(C(=O)Nc2ccc3[nH]ncc3c2)C(c2ccc3ccccc3c2)CC(=O)N1 (stereo not drawn) [GSK270822A]    100
Cl.O=C(Nc1ccc(Oc2ccc3[nH]c(NC(=O)c4ccco4)nc3c2)cc1)Nc1cc(C(F)(F)F)ccc1F [GW683134A]    100

Provide Percent Control for all items below, preserving their order.
1. NS(=O)(=O)c1ccc(N/N=C2\C(=O)Nc3ccc(-c4cnco4)cc32)cc1
2. CN1CCN(C(=O)c2ccc(NC(=O)Nc3ccc(N(C)c4ccnc(Nc5ccc(CS(C)(=O)=O)cc5)n4)cc3)cc2)CC1.Cl [GW830263A]

Result:
[94, 100]
